Biological target: T1, HCoV-OC43 Nucleocapsid (N) protein (2X-StrepTag tagged) (HCoV-OC43, UniProt P33469 1-448)
T1 construct: also called rN; HCoV-OC43 rN; source: HEK293-FT, transfected, in crude lysate; not shown: 2X-StrepTag, C-terminal, kept
T1 sequence: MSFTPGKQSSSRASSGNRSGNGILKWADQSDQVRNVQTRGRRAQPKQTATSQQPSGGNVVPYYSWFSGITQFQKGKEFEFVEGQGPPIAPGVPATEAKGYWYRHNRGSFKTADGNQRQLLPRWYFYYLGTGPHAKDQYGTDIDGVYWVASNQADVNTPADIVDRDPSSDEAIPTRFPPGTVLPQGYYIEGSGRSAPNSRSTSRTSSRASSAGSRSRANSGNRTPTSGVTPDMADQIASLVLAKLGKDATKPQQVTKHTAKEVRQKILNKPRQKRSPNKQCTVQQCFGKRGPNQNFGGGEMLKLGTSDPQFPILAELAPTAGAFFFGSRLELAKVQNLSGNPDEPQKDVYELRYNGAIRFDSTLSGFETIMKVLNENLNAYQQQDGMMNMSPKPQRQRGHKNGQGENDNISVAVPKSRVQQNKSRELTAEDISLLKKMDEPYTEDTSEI
Test: BLI
Conditions: one partner purified
MEASURED_QUANTITY: kon (M⁻¹ s⁻¹)

BINDER	MEASURED_QUANTITY	NUMERIC_RESULT
CXCL13 (ligand, recombinant human CXCL13; source: bought: PeproTech) VLEVYYTSLRCRCVQESSVFIPRRFIDRIQILPRGNGCPRKEIIVWKKNKSIVCVDPQAEWIQRMMEVLRKRSSSTLPVPVFKRKIP	kon	44000
CCL21 (ligand, recombinant human CCL21; source: bought: PeproTech) SDGGAQDCCLKYSQRKIPAKVVRSYRKQEPSLGCSIPAILFLPRKRSQAELCADPKELWVQQLMQHLDKTPSPQKPAQGCRKDRGASKTGKKGKGSKGCKRTERSQTPKGP	kon	67000
CCL5 (ligand, recombinant human CCL5; source: bought: PeproTech) SPYSSDTTPCCFAYIARPLPRAHIKEYFYTSGKCSNPAVVFVTRKNRQVCANPEKKWVREYINSLEMS	kon	2100
CCL28 (ligand, recombinant human CCL28; source: bought: PeproTech) SEAILPIASSCCTEVSHHISRRLLERVNMCRIQRADGDCDLAAVILHVKRRRICVSPHNHTVKQWMKVQAAKKNGKGNVCHRKKHHGKRNSNRAHQGKHETYGHKTPY	kon	60000
CXCL14 (ligand, recombinant human CXCL14; source: bought: PeproTech) SKCKCSRKGPKIRYSDVKKLEMKPKYPHCEEKMVIITTKSVSRYRGQEHCLHPKLQSTKRFIKWYNAWNEKRRVYEE	kon	12000
CCL26 (ligand, recombinant human CCL26; source: bought: PeproTech) TRGSDISKTCCFQYSHKPLPWTWVRSYEFTSNSCSQRAVIFTTKRGKKVCTHPRKKWVQKYISLLKTPKQL	kon	20000
CXCL9 (ligand, recombinant human CXCL9; source: bought: PeproTech) TPVVRKGRCSCISTNQGTIHLQSLKDLKQFAPSPSCEKIEIIATLKNGVQTCLNPDSADVKELIKKWEKQVSQKKKQKNGKKHQKKKVLKVRKSQRSRQKKTT	kon	82000
